assay: drug combination growth inhibition, ovarian cancer – cell-based, oncology-focused library, rucaparib conditional, profiling panel (AID 1508598)
conditions used: patient-derived ovarian cancer cells, CellTiter-Glo viability, 144 h; at 0.000305 µM; OCI-P5x cells; with rucaparib 20 µM; 100% = cells with rucaparib alone
Active and inactive are the calls of the source.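 How the source made its calls: active means normalized viability below 100% at a tested concentration; inactive means the rest.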
Outcome codes: active, inactive

structure smiles string: Nc1nccc(Oc2ccc(NC(=O)c3c[nH]cc(-c4ccc(F)cc4)c3=O)cc2F)c1Cl
assigned class: inactive
--
structure smiles string: COc1ncc(-c2ccc3nccc(-c4ccnnc4)c3c2)cc1NS(=O)(=O)c1ccc(F)cc1F
assigned class: active
--
structure smiles string: CN(C)N=Nc1nc[nH]c1C(N)=O
assigned class: inactive
--
structure smiles string: CN1CCN(c2nc(C3=C(c4c[nH]c5ccccc45)C(=O)NC3=O)c3ccccc3n2)CC1
assigned class: active

====

assay: growth inhibition, single agent or in combination, cell-based, chromothripsis tumors, cisplatin or BGB combos (AID 1671449);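 further: cells exposed for 96 hours; 0% = vehicle DMSO and 100% = killing by high DMSO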
conditions used: LFS_MB_P medulloblastoma cells, measured here: combination with BGB IC40, at 0.05 µM
Assign 1 to entries whose inhibition meets or exceeds -20%; assign -1 to the rest.

structure smiles string: CC(=O)Nc1ccc(C(=O)Nc2ccccc2N)cc1
assigned class: -1

structure smiles string: c1cc(Nc2cc(C3CC3)[nH]n2)nc(Nc2ccc3nc[nH]c3c2)n1
assigned class: 1

structure smiles string: CN[C@@H]1CN(c2ccc3c(=O)c(C(=O)O)cn(-c4nccs4)c3n2)C[C@H]1OC
assigned class: -1

structure smiles string: C=C1[C@H](CO)[C@@H](O)C[C@@H]1n1cnc2c(=O)[nH]c(N)nc21
assigned class: 1

structure smiles string: CC(=O)Nc1nc(C)c(-c2ccc(Cl)c(S(=O)(=O)NCCO)c2)s1
assigned class: 1

structure smiles string: Nc1nc2n[nH]nc2c(=O)[nH]1
assigned class: -1

structure smiles string: O=C(/C=C/c1cccc(S(=O)(=O)Nc2ccccc2)c1)NO
assigned class: 1

structure smiles string: Nc1ccccc1NC(=O)c1ccc(CNc2nccc(-c3cccnc3)n2)cc1
assigned class: -1

====

assay: galactose survival enhancers in mitochondrial complex I cybrids – cell-based, galactose medium, ATP luminescence, primary screen (AID 1645843);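 further: positive z means more ATP and so rescue of galactose-driven cybrid death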
conditions used: complex I mutant cybrid cells, 72 h
Activity calls are given as the source filed them.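 How the source made its calls: active means z-score of at least 1.8 in each of two replicates, scored against plate mean and spread of sample wells; inactive means the rest.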 Where a SMILES comes first, the peptide text is derived from it. [ ]: non-standard residue; d: D form.
Outcome codes: T for active, F for inactive

molecule: CCOC(=O)C1=C(C)NC(c2ccccc2)=C(C(=O)OCc2ccc([N+](=O)[O-])cc2)C1C#Cc1ccccc1 (centres undefined)
assigned class: F
//
molecule: Oc1ccc(-c2c(-c3ccccc3)nn3c(C(F)(F)F)cc(C(F)(F)F)nc23)cc1
assigned class: F
//
molecule: CSC(=N)N
assigned class: F
//
molecule: COC(=O)Nc1ccc2[nH]cc(CCNC(C)=O)c2c1
assigned class: F
//
molecule: Cc1ccc(S(=O)(=O)NCc2ccccc2)cc1
assigned class: F
//
molecule: Cc1cc(C)c(S(=O)(=O)Nc2ccccc2C(F)(F)F)c(C)c1
assigned class: F
//
molecule: CO[C@H]1C[C@@H]2CC[C@@H](C)[C@@](O)(O2)C(=O)C(=O)N2CCCC[C@H]2C(=O)O[C@H]([C@H](C)C[C@@H]2CC[C@@H](O)[C@H](OC)C2)CC(=O)[C@H](C)/C=C(\C)[C@@H](O)[C@@H](OC)C(=O)[C@H](C)C[C@H](C)/C=C/C=C/C=C/1C
assigned class: T
//
molecule: Cn1cc(/C=C2/C(=O)Nc3cccnc32)c2ccccc21
assigned class: F
//
molecule: Clc1cccc(C=NC=Nc2cccc(Cl)c2)c1
assigned class: F
//
molecule: COc1ccc(-c2nc(C(=O)N3CCN(C)CC3)sc2-c2ccc(OC)cc2)cc1
assigned class: F
//
molecule: OCc1ccc(-c2nn(Cc3ccccc3)c3ccccc23)o1
assigned class: F
//
molecule: Cc1cc(Cl)ccc1OCCCC(=O)NO
assigned class: F
//
molecule: COC(=O)[C@H](Cc1ccc([N+](=O)[O-])cc1)NC(=O)c1cccc2ccccc12
assigned class: F
//
molecule: OC[C@H]1O[C@@H](n2cnc3c(NC4CCCC4)ncnc32)[C@H](O)[C@@H]1O
assigned class: F
//
molecule: CN(CCc1ccc(Cl)c(Cl)c1)CCN1CCCC1
assigned class: F
//
molecule: O=C(O)COc1cccc(-c2ocnc2-c2nc(-c3ccccc3)c(-c3ccccc3)o2)c1
assigned class: F
//
molecule: O=C(NC1CCN(Cc2ccccc2)CC1)c1ccc(I)cc1
assigned class: F
//
molecule: O[C@H](CNC[C@@H](O)[C@H]1CCc2cc(F)ccc2O1)[C@@H]1CCc2cc(F)ccc2O1
assigned class: F
//
molecule: O=c1cc(N2CCOCC2)oc2c1ccc1ccccc12
assigned class: F
//
molecule: CC(=Nc1ccccc1N)c1c(C)cc(=O)n(O)c1O
assigned class: F
//
molecule: O=C(N/N=C/c1ccccc1O)c1ccccc1O
assigned class: F
//
molecule: O=c1[nH]cnc2ccccc12
assigned class: F
//
molecule: CC(=O)NCC(=O)N[C@H](CCC(=O)O)C(=O)O (Ac-Gly-[dE]-OH)
assigned class: F
//
molecule: N[C@@H](Cc1cc(-c2ccc(Cl)cc2Cl)cc(CP(=O)(O)O)c1O)C(=O)O
assigned class: F
//
molecule: Cc1ccc(NC2=CC(=O)c3sc(C)nc3C2=O)cc1
assigned class: F
//
molecule: Nc1nc(N)c(N=O)c(OCC2CCCCC2)n1
assigned class: F
//
molecule: CC(C)(C)NCC(O)COc1nsnc1N1CCOCC1 (centres undefined)
assigned class: F
//
molecule: CC[C@H](CO)Nc1nc(NCc2ccc(-c3ccccn3)cc2)c2ncn(C(C)C)c2n1
assigned class: F
//
molecule: CCCNC(=O)N1N=C(c2ccc(N)cc2)c2cc3c(cc2C1C)OCO3 (centres undefined)
assigned class: F
